- RUN_DESCRIPTION: qHTS Assay for Lipid Storage Modulators in Drosophila S3 Cells;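 for cell number change: cells counted by Cell Tracker Red CMTPX staining in the red channel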
- CONDITION_LABEL: BODIPY lipid droplet fluorescence, 18-24 h, cells fed with added oleic acid; measured here: cell count max response
Screen size: about 320,000 compounds; about 2,100 (0.66%) were called active. Not shown: some 53% with an inconclusive outcome. Shown is part of a subset that was picked to be rich in actives.
cell number change values, listed per item
Respond numerically; units are % and should not be typed.

O=C(OCC(=O)N1CCN(c2ccccc2)CC1)c1ccco1    -17.5
O=C1/C(=C/c2cccs2)Cc2ccccc21    20.5
O=C1CCCN1CCCNS(=O)(=O)c1ccc(F)c(F)c1    3.84
O=C(Cc1c(Cl)cccc1Cl)Nc1ccc(S(=O)(=O)Nc2ncccn2)cc1    17.5
O=C1/C(=C/c2cccs2)COc2ccccc21    -6.21

Could you now consider this next compound?
Recorded cell number change (compound `CCNC(=S)NCc1ccc2[nH]c(C)cc2c1` ): 15.9

----------
- RUN_DESCRIPTION: qHTS Assay for Lipid Storage Modulators in Drosophila S3 Cells
- CONDITION_LABEL: BODIPY lipid droplet fluorescence, 18-24 h, cells fed with added oleic acid; series mostly up to 46.1 µM
About 2,100 (0.66%) of roughly 320,000 compounds were called active. Not shown: some 53% with an inconclusive outcome. Calls come from the whole dose curve; as a rule, active = well fitted inhibition curve with a large enough effect in the signal ratio, with a control signal flat (not every such curve was filed as active); inconclusive = small, poorly fitted or top-dose-only effect, or effect the other way, or a change in a side signal; inactive = flat fitted curve, though single readings scatter; the % refers to the signal ratio. Many of the other results were omitted from the sample, so actives are more common in it than they were.
In this exercise, the only acceptable responses are active, inactive

Cc1ccc(/C=N/NC(=O)c2ccc(Br)o2)s1    active

Here is another molecule to look at.
Q: Per the records of this test, what outcome belongs to `CC(=O)c1ccc(N(CC(=O)NC2CCCCC2)C(=O)c2csnn2)cc1` ?
Ans: inactive

----------
- RUN_DESCRIPTION: qHTS Assay for Lipid Storage Modulators in Drosophila S3 Cells
- CONDITION_LABEL: BODIPY lipid droplet fluorescence, 18-24 h, cells fed with added oleic acid; series mostly up to 46.1 µM
Hit rate of the full screen: of about 320,000 compounds, about 2,100 (0.66%) were called active. Roughly 53% stayed inconclusive and do not appear here. Calls follow the shape of the dose curve; as a rule, active = well fitted inhibition curve with a large enough effect in the signal ratio, with a control signal flat (not every such curve was filed as active); inconclusive = small, poorly fitted or top-dose-only effect, or effect the other way, or a change in a side signal; inactive = flat fitted curve, though single readings scatter; the % refers to the signal ratio. The list comes from a sample in which actives are over-represented; it also holds close analogues and randomly drawn compounds.
In this exercise, the only acceptable responses are active, inactive

Would you please look over these solved cases?
O=C(CCn1c(=O)[nH]c2ccsc2c1=O)N1CCN(Cc2ccc3c(c2)OCO3)CC1    inactive
COc1ccc(NS(=O)(=O)c2cccc(C(=O)N3CCN(Cc4cc(OC)ccc4OC)CC3)c2)cc1    inactive
CCOc1ccc(-n2c(SCC(=O)NCc3ccco3)nnc2-c2c[nH]c3ccccc23)cc1    inactive

Q: Per the records of this test, what outcome belongs to `COc1cc2ccccc2cc1C(=O)NC(=S)Nc1cccc(C(=O)O)c1` ?
Ans: inactive

----------
- RUN_DESCRIPTION: qHTS Assay for Lipid Storage Modulators in Drosophila S3 Cells
- CONDITION_LABEL: BODIPY lipid droplet fluorescence, 18-24 h, cells fed with added oleic acid; series mostly up to 46.1 µM
Screen size: about 320,000 compounds; about 2,100 (0.66%) were called active. Roughly 53% stayed inconclusive and do not appear here. Calls come from the whole dose curve; as a rule, active = well fitted inhibition curve with a large enough effect in the signal ratio, with a control signal flat (not every such curve was filed as active); inconclusive = small, poorly fitted or top-dose-only effect, or effect the other way, or a change in a side signal; inactive = flat fitted curve, though single readings scatter; the % refers to the signal ratio. The sample holds actives, similar compounds and a random draw of the others, so the mix is not that of the screen.
In this exercise, the only acceptable responses are 1.0 (active), 0.0 (inactive)

Would you please look over these solved cases?
O=C(N/N=C/C=C/c1ccc([N+](=O)[O-])cc1)C1COc2ccccc2O1 (stereo not given)    0.0
COc1ccc(NC(=S)Nc2ccccc2)cc1    0.0
Nc1nc(N)nc(-c2cc([N+](=O)[O-])ccc2O)n1    0.0

Q: Per the records of this test, what outcome belongs to `COc1ccccc1OCC(=O)Nc1ccc(N2CCOCC2)cc1N1CCOCC1` ?
Ans: 0.0

Q: Per the records of this test, what outcome belongs to `Cn1ccs/c1=N\S(=O)(=O)c1ccc(C(C)(C)C)cc1` ?
Ans: 1.0

Q: Per the records of this test, what outcome belongs to CCOC(=O)N=S(N)(=O)c1ccccc1 (stereo not given) ?
Ans: 1.0

Q: Per the records of this test, what outcome belongs to CC(C)OP(=O)(OC(C)C)C(Nc1ccccc1)c1ccc2c(c1)OCO2 (stereo not given) ?
Ans: 0.0

Q: Per the records of this test, what outcome belongs to `N#Cc1ncc(Cc2ccccc2)nc1C#N` ?
Ans: 1.0

Q: Per the records of this test, what outcome belongs to `COc1ccc(-c2nc(CS(=O)(=O)CC(=O)NCc3ccccc3Br)c(C)o2)cc1` ?
Ans: 0.0

Q: Per the records of this test, what outcome belongs to `O=C(Cn1c(=O)c2cccn2c2ccccc21)NCCc1ccc(Cl)cc1` ?
Ans: 0.0

Q: Per the records of this test, what outcome belongs to CCOC(=O)N=S(N)(=O)c1ccc(Cl)cc1 (stereo not given) ?
Ans: 0.0

Q: Per the records of this test, what outcome belongs to `COc1cc(C(=O)Nc2ccccc2N2CCOCC2)ccc1OCC(=O)N1CCOCC1` ?
Ans: 0.0

Q: Per the records of this test, what outcome belongs to `O=C(Nc1cccc(F)c1)c1ccccc1` ?
Ans: 0.0

Q: Per the records of this test, what outcome belongs to `Nc1cc([N+](=O)[O-])ccc1O` ?
Ans: 1.0

Q: Per the records of this test, what outcome belongs to `COc1ccc(NC(=O)Nc2ccc(OC)cc2)cc1` ?
Ans: 0.0

Q: Per the records of this test, what outcome belongs to `N#Cc1ccc(/C=N/NC(=O)c2cc(-c3cccs3)nc3ccccc23)cc1` ?
Ans: 0.0

Q: Per the records of this test, what outcome belongs to `COc1ccc(/C=C/c2c(-c3ccc(OC)cc3)oc3cccnc23)cc1` ?
Ans: 0.0

Q: Per the records of this test, what outcome belongs to `Cn1ccs/c1=N\S(=O)(=O)c1ccc(Br)cc1` ?
Ans: 0.0

Q: Per the records of this test, what outcome belongs to `COc1cc(C=O)ccc1OCC(=O)Nc1ccccc1N1CCOCC1` ?
Ans: 1.0

----------
- RUN_DESCRIPTION: qHTS Assay for Lipid Storage Modulators in Drosophila S3 Cells
- CONDITION_LABEL: BODIPY lipid droplet fluorescence, 18-24 h, cells fed with added oleic acid; series mostly up to 46.1 µM
- Description: NIH Molecular Libraries Probe Production Centers Network [MLPCN] NIH Chemical Genomics Center [NCGC] […] Triacsin C (Sigma-Aldrich T-4540), an inhibitor of long-chain fatty acyl CoA synthetase that blocks synthesis of triglycerides, was used as a positive control for lipid under-storage. […] Fluorescence was detected by excitation of the fluorophores with a 488-nm laser on an Acumen Explorer (TTP Lab Tech). […] Cells were detected using channel 3 (575-640 nm) with 5-um width and 100-um depth filters. […]
The whole screen tested about 320,000 compounds, of which about 2,100 (0.66%) were called active. Another 53% or so got no clear call; they are omitted. The call rests on the fitted dose curve; in most records, active means well fitted inhibition curve with a large enough effect in the signal ratio, with a control signal flat (not every such curve was filed as active); inconclusive means small, poorly fitted or top-dose-only effect, or effect the other way, or a change in a side signal; inactive means flat fitted curve, though single readings scatter; the % refers to the signal ratio. This is one part of a sample in which actives are shown more often than they occur.
In this exercise, the only acceptable responses are TRUE (active), FALSE (inactive)

Would you please look over these solved cases?
CC(C)CC(=O)/C=C/n1c(=S)oc2ccccc21    TRUE
COc1ccccc1C(=O)N/N=C(\C)CC(=O)Nc1ccc2c(c1)OCCO2    TRUE
COC(c1ccccc1)c1nnc(CCC(=O)NCCc2ccc(Cl)cc2)o1 (configuration not stated)    TRUE

Q: Per the records of this test, what outcome belongs to `C/C(CC(=O)Nc1ccc2c(c1)OCCO2)=N\NC(=O)c1ccccc1F` ?
Ans: FALSE

Q: Per the records of this test, what outcome belongs to `COC(=O)c1ccccc1N1CCS(=O)(=O)CC1` ?
Ans: TRUE

Q: Per the records of this test, what outcome belongs to Cc1cccc(NC(=O)NCC(c2ccc(F)cc2)N2CCN(C)CC2)c1 (configuration not stated) ?
Ans: FALSE

Q: Per the records of this test, what outcome belongs to `COC(=O)c1ccccc1NC(=O)N1CCN(c2ccccc2F)CC1` ?
Ans: FALSE

Q: Per the records of this test, what outcome belongs to N=c1c(C(=O)NCC2CCCO2)cc2c(=O)n3ccccc3nc2n1C1CCCCC1 (configuration not stated) ?
Ans: FALSE

Q: Per the records of this test, what outcome belongs to `COCCCn1c(C(=O)NCCN2CCOCC2)cc2c(=O)n3ccccc3nc21` ?
Ans: TRUE

Q: Per the records of this test, what outcome belongs to `COCCCn1c(C(=O)N2CCOCC2)cc2c(=O)n3ccccc3nc21` ?
Ans: FALSE

Q: Per the records of this test, what outcome belongs to `CCN(CC)C(=O)c1[nH]cnc1C(=O)N[C@@H](CC(C)C)C(=O)OCc1ccccc1` ?
Ans: FALSE

Q: Per the records of this test, what outcome belongs to `COC(CNC(=O)c1ccc2nc(-c3ccccc3)c(-c3ccccc3)nc2c1)OC` ?
Ans: FALSE

Q: Per the records of this test, what outcome belongs to `N=c1c(C(=O)NC2CCCC2)cc2c(=O)n3ccccc3nc2n1C1CCCC1` ?
Ans: FALSE

Q: Per the records of this test, what outcome belongs to `COCCn1c(SCC(=O)NNC(=O)c2ccccc2)nc2ccccc2c1=O` ?
Ans: FALSE

Q: Per the records of this test, what outcome belongs to CC(=O)Nc1ccc(OCC(O)Cn2c3ccccc3c3ccccc32)c(C)c1 (configuration not stated) ?
Ans: FALSE

Q: Per the records of this test, what outcome belongs to `Cc1ccc(NC(=O)c2ccccc2OCc2c(C)noc2C)cc1S(=O)(=O)N(C)C` ?
Ans: FALSE

Q: Per the records of this test, what outcome belongs to Cc1ccc(C(CNC(=O)Nc2ccccc2)N2CCN(C)CC2)cc1 (configuration not stated) ?
Ans: TRUE

Q: Per the records of this test, what outcome belongs to `COc1ccc(C(=O)N/N=C(\C)CC(=O)Nc2ccc3c(c2)OCCO3)c(OC)c1` ?
Ans: FALSE
